Target: UniProt:Q9NWZ3
Experiment: IRAK4 MSD degradation in OCI-LY10
Format: cell-based
Details: OCI-LY10, 4 hrs; read-out: IRAK4 MSD degradation in OCI-LY10 at 4 hrs: DC50
measured_metric: DC50

Guide cases for DC50, answers given:
[[record]]
molecule = "CN(C[C@H]1CC[C@H](n2cc(NC(=O)c3cnn4ccc(N5C[C@H]6C[C@@H]5CO6)nc34)c(C(F)F)n2)CC1)[C@H]1CC[C@H](Nc2cccc3c2C(=O)N(C2CCC(=O)NC2=O)C3=O)CC1 (some centres unmarked)"
measurement_target = "UniProt:Q9NWZ3"
result = "10 to 100 nM"

[[record]]
molecule = "CN(CCCN1CCO[C@H](CNc2cccc3c2C(=O)N(C2CCC(=O)NC2=O)C3=O)C1)C[C@H]1CC[C@H](n2cc(NC(=O)c3cnn4ccc(N5C[C@H]6C[C@@H]5CO6)nc34)c(C(F)F)n2)CC1 (some centres unmarked)"
measurement_target = "UniProt:Q9NWZ3"
result = "10 to 100 nM"

[[record]]
molecule = "CN1C(=O)CCC(N2C(=O)c3cccc(NCCCOCCCS(=O)(=O)N(C)C(=O)[C@H]4CC[C@H](n5cc(NC(=O)c6cnn7ccc(N8C[C@H]9C[C@@H]8CO9)nc67)c(C(F)F)n5)CC4)c3C2=O)C1=O (stereo in doubt)"
measurement_target = "UniProt:Q9NWZ3"
result = "100 to 1000 nM"

[[record]]
molecule = "CN(CCCC#Cc1cccc2c1n(C)c(=O)n2C1CCC(=O)NC1=O)C[C@H]1CC[C@H](n2cc(NC(=O)c3cnn4ccc(N5C[C@H]6C[C@@H]5CO6)nc34)c(C(F)F)n2)CC1 (some centres unmarked)"
measurement_target = "UniProt:Q9NWZ3"
result = "10 to 100 nM"


Now, please, on to the next molecule.
Exercise: Quick check: DC50 of CN(C[C@H]1CC[C@H](C2N=C(NC(=O)c3cnn4ccc(N5CCOCC5)nc34)C(C(F)F)=N2)CC1)C1CCC(CNc2cccc3c2C(=O)N(C2CCC(=O)NC2=O)C3=O)CC1 (some centres unmarked) ?
Solution: 100 to 1000 nM

---

Target: IRAK4 (Homo sapiens (Human), UniProt Q9NWZ3)
Sequence (Q9NWZ3 whole entry): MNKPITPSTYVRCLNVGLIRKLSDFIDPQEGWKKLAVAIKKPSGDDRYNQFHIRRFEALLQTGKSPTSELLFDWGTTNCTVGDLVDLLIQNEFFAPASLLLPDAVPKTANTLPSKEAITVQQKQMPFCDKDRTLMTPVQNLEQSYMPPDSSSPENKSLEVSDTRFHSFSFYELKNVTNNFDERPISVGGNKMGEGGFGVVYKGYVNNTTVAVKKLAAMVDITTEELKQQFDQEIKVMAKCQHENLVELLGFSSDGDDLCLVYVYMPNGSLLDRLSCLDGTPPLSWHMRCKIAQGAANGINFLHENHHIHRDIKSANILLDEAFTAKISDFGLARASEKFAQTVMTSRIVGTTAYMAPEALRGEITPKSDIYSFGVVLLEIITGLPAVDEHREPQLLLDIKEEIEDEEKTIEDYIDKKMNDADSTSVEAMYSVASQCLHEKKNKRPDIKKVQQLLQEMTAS
Assay: IRAK4 MSD degradation in OCI-LY10
Type: cell-based
Conditions: OCI-LY10, 4 hrs, MSD; read-out: IRAK4 MSD degradation in OCI-LY10 at 4 hrs: Average external-Abs DC50
Description: Degradation of IRAK4 in OCI-LY10 was quantitatively measured using Meso Scale Discovery technology. […] Compounds were then added to the assay plates with a final top concentration of 1 to 10 μM in a 1:3 dilution series with total of 8 doses. […] The assay plates were then incubated at room temperature for 1 hour, washed 3 times with 150 μL/well TB ST buffer, and 150 μL/well MSD reading buffer (Meso Scale Discovery catalog number R92TC-2) was added. […]
measured_metric: DC50

Guide cases for DC50, answers given:
[[record]]
compound = "Cn1c(=O)n(C2CCC(=O)NC2=O)c2ccc(CN3CCC(CCN4CCC(n5cc(NC(=O)c6coc(-c7ccnc(NCC8CC8)c7)n6)c(C(F)F)n5)CC4)CC3)cc21 (stereo not shown) [I-181]"
measured_metric = "DC50"
result = "0.1 to 1 µM"

[[record]]
compound = "CN(CCCOCCCc1ccc2c(c1)c1cccnc1n2C1CCC(=O)NC1=O)C[C@H]1CC[C@H](n2cc(NC(=O)c3coc(-c4ccnc(NCC5CC5)c4)n3)c(C(F)F)n2)CC1 (stereo partly shown) [I-46]"
measured_metric = "DC50"
result = "0.01 to 0.1 µM"

[[record]]
compound = "O=C1CCC(N2C[C@@H](c3ccc(C#CCCOC4CCN(C[C@H]5CC[C@H](n6cc(NC(=O)C7CNN8C=CC(N9CCOCC9)=NC78)c(C(F)F)n6)CC5)CC4)cc3)OC2=O)C(=O)N1 (stereo partly shown) [I-197]"
measured_metric = "DC50"
result = "0.01 to 0.1 µM"

[[record]]
compound = "O=C1CCC(N2Cc3c(NCCOCC4CCN(C[C@H]5CC[C@H](n6cc(NC(=O)c7cnn8ccc(N9C[C@H]%10C[C@@H]9CO%10)nc78)c(C(F)F)n6)CC5)CC4)cccc3C2=O)C(=O)N1 (stereo partly shown) [I-374]"
measured_metric = "DC50"
result = "> 1 µM"

[[record]]
compound = "CC(C)(O)c1cc2nn([C@H]3CC[C@H](CN4CCC5(CC4)CC(Nc4cccc6c4C(=O)N(C4CCC(=O)NC4=O)C6=O)C5)CC3)cc2cc1NC(=O)c1cccc(C(F)(F)F)n1 (stereo partly shown) [I-326]"
measured_metric = "DC50"
result = "< 0.01 µM"


Provide DC50 values for the following items, in order.
1. Cc1c[nH]c2ncnc(N[C@H]3CC[C@H](N4CCN(C(=O)COCCOCCOCCOCCCc5cccc6c5n(C)c(=O)n6C5CCC(=O)NC5=O)CC4)CC3)c12 (stereo partly shown) [I-25]
2. O=C1CCC(N2C(=O)c3cccc(OCCCOC4CCN(C[C@H]5CC[C@H](n6cc(NC(=O)c7cnn8ccc(N9CCOCC9)nc78)c(C(F)F)n6)CC5)CC4)c3C2=O)C(=O)N1 (stereo partly shown) [I-209]
3. Cn1c(=O)n(C2CCC(=O)NC2=O)c2ccc(CN3CCN(CCO[C@H]4C[C@H](N(C)C[C@H]5CC[C@H](n6cc(NC(=O)c7coc(-c8ccnc(NCC9CC9)c8)n7)c(C(F)F)n6)CC5)C4)CC3)cc21 (stereo partly shown) [I-252]

Solution:
["> 1 µM", "0.01 to 0.1 µM", "< 0.01 µM"]

Provide DC50 values for the following items, in order.
1. CN(CCCOCCCc1cccc2c1n(C)c(=O)n2[C@H]1CCC(=O)NC1=O)C[C@H]1CC[C@H](n2cc(NC(=O)c3coc(-c4ccnc(NCC5CC5)c4)n3)c(C(F)F)n2)CC1 (single isomer, unassigned) [I-306]
2. O=C1CCC(N2C(=O)c3cccc(NCCCOCCCOC[C@H]4CC[C@H](n5cc(NC(=O)c6cnn7ccc(N8C[C@H]9C[C@@H]8CO9)nc67)c(C(F)F)n5)CC4)c3C2=O)C(=O)N1 (stereo partly shown) [I-363]

Solution:
< 0.01 µM
> 1 µM

---

Tested on: OCI-LY10
Test: CTG Cell Viability Assay - OCI-LY10
Assay type: cell-based, human
Conditions: Homo sapiens, OCI-Ly10, 96 h, OCI-LY10, 4 days; read-out: CTG Cell Viability Assay - OCI-LY10: Average external-IC50
measured_metric: IC50

[[record]]
compound = "CC[C@@H]1[C@H](F)C(=O)N[C@@H]1COc1ncc(C#C[C@H]2CC[C@H](CN3CCO[C@@H](COCCCNc4cccc5c4C(=O)N(C4CCC(=O)NC4=O)C5=O)C3)CC2)c2cc(C(N)=O)c(OC)cc12 (some centres unmarked)"
measured_metric = "IC50"
result = "50 to 100 nM"

[[record]]
compound = "Cn1c(=O)n(C2CCC(=O)NC2=O)c2cccc(CCCOC3CCN([C@H]4CC[C@H](Nc5ncnc6ccc(C#N)cc56)CC4)CC3)c21 (some centres unmarked)"
measured_metric = "IC50"
result = "> 1000 nM"

[[record]]
compound = "CN(C[C@@H]1CN(CCNCc2ccc3c(c2)n(C)c(=O)n3C2CCC(=O)NC2=O)CCO1)C[C@H]1CC[C@H](n2cc(NC(=O)c3coc(-c4ccnc(NCC5CC5)c4)n3)c(C(F)F)n2)CC1 (some centres unmarked)"
measured_metric = "IC50"
result = "> 1000 nM"

[[record]]
compound = "Cn1c(=O)n(C2CCC(=O)NC2=O)c2cccc(CN3CCN(CC[C@H]4CC[C@H](n5cc(NC(=O)c6cnn7ccc(N8C[C@H]9C[C@@H]8CO9)nc67)c(C(F)F)n5)CC4)CC3)c21 (some centres unmarked)"
measured_metric = "IC50"
result = "> 1000 nM"


Exercise: Quick check: IC50 of CN(CCCOCCCNC(=O)c1ccc(CNCc2ccc(-c3ccc4c(cnn4CC4CC4)c3)cc2)cc1)C(=O)[C@H]1CC[C@H](n2cc(NC(=O)c3coc(-c4ccnc(NCC5CC5)c4)n3)c(C(F)F)n2)CC1 ?
Solution: > 1000 nM

---

Biological target: IRAK4 (Homo sapiens (Human), UniProt Q9NWZ3)
Test: IRAK4 MSD degradation in OCI-LY10
Format: cell-based
Conditions: OCI-LY10, 4 hrs; read-out: IRAK4 MSD degradation in OCI-LY10 at 4 hrs: DC50
measured_metric: DC50

[[record]]
compound = "O=C1CCC(N2C(=O)c3cccc(N[C@H]4C[C@H](OC5CCN(C[C@H]6CC[C@H](n7cc(NC(=O)c8cnn9ccc(N%10C[C@H]%11C[C@@H]%10CO%11)nc89)c(C(F)F)n7)CC6)CC5)C4)c3C2=O)C(=O)N1 (some centres unmarked) [I-505]"
result = "10 to 100 nM"

[[record]]
compound = "Cn1c(=O)n(C2CCC(=O)NC2=O)c2cccc(C#CCC3CCN(C[C@H]4CC[C@H](C5N=C(NC(=O)c6cnn7ccc(N8C[C@H]9CC[C@@H](C8)O9)nc67)C(C(F)F)=N5)CC4)CC3)c21 (some centres unmarked) [I-534]"
result = "10 to 100 nM"

[[record]]
compound = "Cn1c(=O)n(C2CCC(=O)NC2=O)c2cccc(CC[C@@H]3CN(C[C@H]4CC[C@H](C5N=C(NC(=O)c6cnn7ccc(N8CCCOCC8)nc67)C(C(F)F)=N5)CC4)CCO3)c21 (some centres unmarked) [I-514]"
result = "< 10 nM"


Provide DC50 values for the following items, in order.
1. Cn1c(=O)n(C2CCC(=O)NC2=O)c2cccc(CCCN3CC4(CCN(C(=O)[C@H]5CC[C@H](n6cc(NC(=O)c7cnn8cccnc78)c(N7CCOCC7)n6)CC5)CC4)C3)c21 (some centres unmarked) [I-494]
2. Cn1c(=O)n(C2CCC(=O)NC2=O)c2cccc(CCOC3CC4(CCN(C[C@H]5CC[C@H](n6cc(NC(=O)c7cnn8ccc(N9C[C@H]%10C[C@@H]9CO%10)nc78)c(C(F)F)n6)CC5)CC4)C3)c21 (some centres unmarked) [I-469]

Solution:
100 to 1000 nM
< 10 nM
